FYI, the data here is from ChEMBL document CHEMBL5303573.

- details: akkermansia muciniphila, 12 h, 2 µM
- Description: The drug is tested on Akkermansia muciniphila strain: ATCC BAA-835 for biotransformation. The drug concentrations were measured before and after a 12-h incubation by liquid-chromatography-coupled mass spectrometry (LC–MS)
quantity: Bacterial Biotransformation

Solved entries:
[[record]]
compound = "CC(Oc1c(Cl)cccc1Cl)C1=NCCN1 (stereo not drawn) [LOFEXIDINE]"
reading = "Compound metabolized"

[[record]]
compound = "CCN(CC)CCOC(=O)C(Cc1cccc2ccccc12)CC1CCCO1.O=C(O)C(=O)O (stereo not drawn) [NAFRONYL OXALATE]"
reading = "Compound NOT metabolized"

[[record]]
compound = "Br.CN1CCC[C@@H]1Cc1c[nH]c2ccc(CCS(=O)(=O)c3ccccc3)cc12 [ELETRIPTAN HYDROBROMIDE]"
reading = "Compound NOT metabolized"

[[record]]
compound = "CCN(CC)C(=O)C1(c2ccccc2)CC1CN (stereo not drawn)"
reading = "Compound NOT metabolized"

[[record]]
compound = "CC(C)(C)NC(=O)[C@H]1CC[C@H]2[C@@H]3CC[C@H]4NC(=O)C=C[C@]4(C)[C@H]3CC[C@]12C [FINASTERIDE]"
reading = "Compound metabolized"

[[record]]
compound = "COC(=O)Nc1nc2ccc(C(=O)c3ccccc3)cc2[nH]1 [MEBENDAZOLE]"
reading = "Compound NOT metabolized"

[[record]]
compound = "CCN(CC)CCOCCOC(=O)C1(c2ccccc2)CCCC1.O=C(O)CC(O)(CC(=O)O)C(=O)O [CARBETAPENTANE CITRATE]"
reading = "Compound metabolized"


Proceeding to the next compound to report its Bacterial Biotransformation.
-- ask Specify Bacterial Biotransformation for COc1cc2c(c(OC)c1OC)-c1ccc(OC)c(=O)cc1[C@@H](NC(C)=O)CC2 [COLCHICINE] and stop.
-- reply Compound NOT metabolized
